parameter: melting point (°C)
Please state the figure in °C; there is no need to write the unit.

Field melting point (entry Cc1cc(-c2ccc(C(F)(F)F)cc2)cc(-c2cccc(-c3ccnc(N)c3)n2)n1 ) reads 160

Field melting point (entry NS(=O)(=O)c1cccc(-c2cc(-c3nc(-c4cccc(C(F)(F)F)c4)cc(C(F)(F)F)n3)ccn2)c1 ) reads 244

Field melting point (entry Cc1cc(-c2ccc(C(F)(F)F)cc2)cc(-c2cccc(-c3cccc(S(=O)(=O)N(C)C)c3)n2)n1 ) reads 155

Field melting point (entry Nc1ccc(-c2cccc(-c3nc(-c4ccc(C(F)(F)F)cc4)cc(C(F)(F)F)n3)c2)cn1 ) reads 205

Field melting point (entry Nc1ccc(-c2nccc(-c3nc(-c4ccc(C(F)(F)F)cc4)cc(C(F)(F)F)n3)n2)cn1 ) reads 236.5

Field melting point (entry Cc1cc(-c2ccc(C(F)(F)F)cc2)cc(-c2nc(-c3ccc(N)nc3)cs2)n1 ) reads 191

* * *

Please go through the items and note down their melting point.
Please state the figure in °C; there is no need to write the unit.

Field melting point (entry FC(F)(F)c1ccc(-c2cc(C(F)(F)F)nc(-n3cccc3)n2)cc1 ) reads 120.5

Field melting point (entry COC1CCN(S(=O)(=O)c2cccc(-c3cccc(-c4cc(-c5ccc(C(F)(F)F)cc5)cc(C)n4)n3)c2)CC1 ) reads 107

* * *

Please go through the items and note down their melting point.
Please state the figure in °C; there is no need to write the unit.

Field melting point (entry Nc1ncc(-c2cn(-c3nc(-c4cccc(C(F)(F)F)c4)cc(C(F)(F)F)n3)cn2)cn1 ) reads 223

Field melting point (entry Cc1cc(-c2ccc(Cl)c(Cl)c2)cc(-c2ccc(-c3cnc(N)nc3)s2)n1 ) reads 237

Field melting point (entry Nc1ncc(-c2cccc(-c3nc(-c4ccc(C(F)(F)F)c(OCC(F)(F)F)c4)cc(C(F)(F)F)n3)c2)cn1 ) reads 250

Field melting point (entry Cc1cc(-c2cc(C(F)(F)F)nc(-c3nc(-c4ccc(N)nc4)no3)n2)ccc1Cl ) reads 199.5

* * *

Please go through the items and note down their melting point.
Please state the figure in °C; there is no need to write the unit.

Field melting point (entry Nc1ccc(-c2cccc(-c3nc(-c4ccc(Cl)cc4)cc(C(F)(F)F)n3)c2)cn1 ) reads 171

Field melting point (entry Nc1ccc(-c2cn(-c3nc(-c4ccc(F)cc4)cc(C(F)(F)F)n3)cn2)cn1 ) reads 249.5

Field melting point (entry Cc1cc(-c2ccc(Cl)cc2)nc(-c2cccc(-c3cnc(N)nc3)c2)n1 ) reads 228

Field melting point (entry NS(=O)(=O)c1ccc(-c2cccc(-c3nc(-c4ccc(C(F)(F)F)cc4)cc(C(F)F)n3)c2)s1 ) reads 240.5

Field melting point (entry NS(=O)(=O)c1cnc(-c2cn(-c3nc(-c4ccc(C(F)(F)F)cc4)cc(C(F)(F)F)n3)cn2)s1 ) reads 264

Field melting point (entry NS(=O)(=O)c1cccc(-c2cccc(-c3nc(-c4ccc(Cl)cc4)cc(C(F)(F)F)n3)c2)c1 ) reads 165

* * *

For each record, check the reported melting point: if it is below 200 °C write 1 (yes), else write 0 (no).

Find out if reported melting point for Cc1cc(-c2ccc(Cl)c(Cl)c2)nc(-n2cnc(-c3ccc(N)nc3)c2)n1 is less than 200 °C
0 (no)

Find out if reported melting point for NS(=O)(=O)c1ccc(-c2cccc(-c3nc(-c4ccc(C(F)(F)F)cc4F)cc(C(F)(F)F)n3)c2)s1 is less than 200 °C
1 (yes)

Find out if reported melting point for Nc1ncc(-c2cn(-c3cc(C(F)(F)F)cc(-c4ccc(C(F)(F)F)cc4)n3)cn2)cn1 is less than 200 °C
0 (no)

Find out if reported melting point for Cc1cc(-c2ccc(C(F)(F)F)cc2)cc(-c2cccc(-c3cncc(S(N)(=O)=O)c3)c2)n1 is less than 200 °C
0 (no)

Find out if reported melting point for NS(=O)(=O)c1cccc(-c2cc(-c3nc(-c4ccc(Cl)c(Cl)c4)cc(C(F)(F)F)n3)ccn2)c1 is less than 200 °C
0 (no)

Find out if reported melting point for NS(=O)(=O)c1cccc(-c2cn(-c3nc(-c4ccc(F)cc4)cc(C(F)(F)F)n3)cn2)c1 is less than 200 °C
0 (no)

Find out if reported melting point for NS(=O)(=O)c1cccc(-c2cc(-c3nc(-c4ccc(C(F)(F)F)cc4)cc(C(F)(F)F)n3)ccn2)c1 is less than 200 °C
0 (no)

Find out if reported melting point for O=S(=O)(c1cccc(-c2cc(-c3nc(-c4ccc(C(F)(F)F)cc4)cc(C(F)(F)F)n3)ccn2)c1)N(CCO)CCO is less than 200 °C
1 (yes)

Find out if reported melting point for O=S(=O)(c1cccc(-c2cc(-c3nc(-c4ccc(C(F)(F)F)cc4)cc(C(F)(F)F)n3)ccn2)c1)N1CCCC1 is less than 200 °C
1 (yes)

Find out if reported melting point for NS(=O)(=O)c1ccc(-c2cc(-c3nc(-c4ccc(C(F)(F)F)cc4F)cc(C(F)(F)F)n3)ccn2)s1 is less than 200 °C
0 (no)

Find out if reported melting point for NS(=O)(=O)c1cnc(-c2cn(-c3nc(-c4ccc(Cl)cc4)cc(C(F)(F)F)n3)cn2)s1 is less than 200 °C
0 (no)

Find out if reported melting point for CCc1cc(-c2ccc(C(F)(F)F)cc2)cc(-c2cccc(-c3cccc(S(=O)(=O)NC(C)(C)C)c3)c2)n1 is less than 200 °C
1 (yes)

Find out if reported melting point for Cc1cc(-c2ccc(Cl)cc2)nc(-c2cccc(-c3ccc(N)nc3)c2)n1 is less than 200 °C
1 (yes)

Find out if reported melting point for Cc1cc(-c2ccc(C(F)(F)F)cc2)cc(-c2cccc(-c3cccc(NS(=O)(=O)N4CCOCC4)c3)n2)n1 is less than 200 °C
1 (yes)

Find out if reported melting point for Nc1ccc(-c2cn(-c3nc(-c4cccc(C(F)(F)F)c4)cc(C(F)(F)F)n3)cn2)cn1 is less than 200 °C
0 (no)

Find out if reported melting point for Cc1cc(-c2ccc(C(F)(F)F)cc2)cc(-c2ccnc(-c3ccc(S(N)(=O)=O)s3)c2)n1 is less than 200 °C
0 (no)

Find out if reported melting point for NS(=O)(=O)c1cccc(-c2noc(-c3nc(-c4ccc(Cl)cc4)cc(C(F)(F)F)n3)n2)c1 is less than 200 °C
0 (no)

Find out if reported melting point for FC(F)(F)c1cc(-c2ccc(Cl)cc2)nc(-n2cccc2)n1 is less than 200 °C
1 (yes)

Find out if reported melting point for Cc1cc(-c2ccc(C(F)(F)F)cc2)nc(-c2ccnc(-c3cccc(S(N)(=O)=O)c3)c2)n1 is less than 200 °C
0 (no)

Find out if reported melting point for CC(C)(C)NS(=O)(=O)c1cccc(-c2cccc(-c3nc(-c4ccc(C(F)(F)F)cc4)cc(C(F)(F)F)n3)n2)c1 is less than 200 °C
1 (yes)

Find out if reported melting point for NS(=O)(=O)c1ccc(-c2cc(-c3nc(-c4ccc(Cl)cc4)cc(C(F)(F)F)n3)ccn2)s1 is less than 200 °C
0 (no)

Find out if reported melting point for Cc1cc(-c2ccc(Cl)c(Cl)c2)nc(-n2cnc(-c3ccc(S(N)(=O)=O)cc3)c2)n1 is less than 200 °C
0 (no)

Find out if reported melting point for CCCN(C)S(=O)(=O)c1cccc(-c2cc(-c3nc(-c4ccc(C(F)(F)F)cc4)cc(C(F)(F)F)n3)ccn2)c1 is less than 200 °C
1 (yes)

Find out if reported melting point for FC(F)(F)c1cc(-c2ccc(Cl)cc2)nc(-n2cnc(-c3cccnc3)c2)n1 is less than 200 °C
0 (no)

Find out if reported melting point for NS(=O)(=O)c1cccc(-c2cc(-c3nc(-c4ccc(F)cc4)cc(C(F)(F)F)n3)ccn2)c1 is less than 200 °C
0 (no)

Find out if reported melting point for NS(=O)(=O)c1cccc(-c2cc(-c3nc(-c4ccc(F)c(F)c4)cc(C(F)(F)F)n3)ccn2)c1 is less than 200 °C
0 (no)
